biological target: C-CFTR 1411-1480 (Homo sapiens, UniProt P13569); assay: SPR
Sequence (P13569 1411-1480): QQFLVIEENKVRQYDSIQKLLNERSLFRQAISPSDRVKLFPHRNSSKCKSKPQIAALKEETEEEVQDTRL
// values below are reported pKd
Give only the number. pKd is defined as minus log10 of concentration in molar units.

NHERF1 PDZ2-CT L358D 150-358 (protein) LRPRLCTMKKGPSGYGFNLHSDKSKPGQFIRSVDPDSPAEASGLRAQDRIVEVNGVCMEGKQHGDVVSAIRAGGDETKLLVVDRETDEFFKKCRVIPSQEHLNGPLPVPFTNGEIQKENSREALAEAALESPRPALVRSASSDTSEELNSQDSPPKQDSTAPSSTSSSDPILDFNISLAMAKERAHQKRSSKRAPQMDWSKKNELFSND :: 5.80
NHERF1 PDZ2-CT E353A 150-358 (protein) LRPRLCTMKKGPSGYGFNLHSDKSKPGQFIRSVDPDSPAEASGLRAQDRIVEVNGVCMEGKQHGDVVSAIRAGGDETKLLVVDRETDEFFKKCRVIPSQEHLNGPLPVPFTNGEIQKENSREALAEAALESPRPALVRSASSDTSEELNSQDSPPKQDSTAPSSTSSSDPILDFNISLAMAKERAHQKRSSKRAPQMDWSKKNALFSNL :: 5.60

Consider the additional binder presented here.
input: Param item = NHERF1 PDZ2-CT 150-358 (protein) LRPRLCTMKKGPSGYGFNLHSDKSKPGQFIRSVDPDSPAEASGLRAQDRIVEVNGVCMEGKQHGDVVSAIRAGGDETKLLVVDRETDEFFKKCRVIPSQEHLNGPLPVPFTNGEIQKENSREALAEAALESPRPALVRSASSDTSEELNSQDSPPKQDSTAPSSTSSSDPILDFNISLAMAKERAHQKRSSKRAPQMDWSKKNELFSNL ; retrieve measured pKd.
output: 5.70
